Tested on: HeLa S3 cells
assayRemarks: Protective effect of peptides on apoptosis and necrosis in the presence of camptothecin (Annexin-V FITC / PI flow cytofluorimetry)
Format: cell-based, human
conditionNotes: HeLa cell culture, peptide 400 ng/ml + camptothecin 50 µM, 24 hours
Residues, ends and D or L forms follow the SMILES beside them.
measuredEndpoint: Apoptosis (%)
Quick note: give the figure in %, leave out the unit.

molecule: CCNC(=O)[C@H](CCC(=O)O)NC(=O)[C@@H](N)CC(=O)O [DENHEt, H-Asp-Glu-NH-CH2-CH3] (HELM PEPTIDE1{D.E.[CCN[*:1]]}$$$$V2.0)
unitAnnotation: %
valueMeasured: 8

For record COC(=O)[C@H](CCC(=O)O)NC(=O)[C@@H](N)CC(=O)O [DEOMe, H-Asp-Glu-OCH3] (HELM PEPTIDE1{D.E.[CO[*:1]]}$$$$V2.0) the listed Apoptosis is 2.5

The molecule listed as CC(=O)N[C@@H](CC(=O)O)C(=O)N[C@@H](CCC(=O)O)C(=O)O [AcDE, Ac-Asp-Glu-OH] (Ac-Asp-Glu-OH) shows Apoptosis equal to 22

So for C[C@H](N)C(=O)N[C@@H](CC(=O)O)C(=O)N[C@@H](CCC(=O)O)C(=O)N[C@@H](CCCNC(=N)N)C(=O)O [ADER, H-Ala-Asp-Glu-Arg-OH] (H-ADER-OH) , the logged Apoptosis turned out to be 2.3

###

Tested on: HeLa S3 cells
assayRemarks: Protective effect of peptides on apoptosis and necrosis in the presence of camptothecin (Annexin-V FITC / PI flow cytofluorimetry)
Assay type: cell-based, human
conditionNotes: HeLa cell culture, peptide 50 ng/ml + camptothecin 50 µM, 24 hours
Experimental: The experiments to study the effect of peptides on apoptosis and necrosis involved the use of reagents in the ApoTarget Annexin-V FITC Apoptosis Kit (Invitrogen, CIIIA). […] The «red» fluorescence of resulting complexes is identified with a flow cytofluorimeter. […] The HeLa S3 and NIH 3T3 cells were removed from the surface of the culture vials and counted; the concentration was moved to 10^5 cell/ml, and the resulting suspensions were put in doses of 1 ml in the wells of a 24-well plate. […]
Residues, ends and D or L forms follow the SMILES beside them.
measuredEndpoint: Necrosis

compound: CCNC(=O)[C@H](CCC(=O)O)NC(=O)[C@@H](N)CC(=O)O [DENHEt, H-Asp-Glu-NH-CH2-CH3] (HELM PEPTIDE1{D.E.[CCN[*:1]]}$$$$V2.0)
measuredEndpoint: Necrosis
valueMeasured: 20%
--
compound: COC(=O)[C@H](CCC(=O)O)NC(=O)[C@@H](N)CC(=O)O [DEOMe, H-Asp-Glu-OCH3] (HELM PEPTIDE1{D.E.[CO[*:1]]}$$$$V2.0)
measuredEndpoint: Necrosis
valueMeasured: 5%
--
compound: CC(=O)N[C@@H](CC(=O)O)C(=O)N[C@@H](CCC(=O)O)C(=O)O [AcDE, Ac-Asp-Glu-OH] (Ac-Asp-Glu-OH)
measuredEndpoint: Necrosis
valueMeasured: 13%

# input for lookup
Briefly, Necrosis measured for C[C@H](N)C(=O)N[C@@H](CC(=O)O)C(=O)N[C@@H](CCC(=O)O)C(=O)N[C@@H](CCCNC(=N)N)C(=O)O [ADER, H-Ala-Asp-Glu-Arg-OH] (H-ADER-OH) : 5.2%

###

System: NIH 3T3 cells
assayRemarks: Protective effect of peptides on apoptosis and necrosis in the presence of camptothecin (Annexin-V FITC / PI flow cytofluorimetry)
Assay type: cell-based, mice
conditionNotes: NIH3T3 cell culture, peptide 200 ng/ml + camptothecin 50 µM, 24 hours
Residues, ends and D or L forms follow the SMILES beside them.
Below: a set of entries, each annotated with reported Apoptosis.
Answer format: numeric, % implied, no suffix.

compound: C[C@H](N)C(=O)N[C@@H](CC(=O)O)C(=O)N[C@@H](CCC(=O)O)C(=O)N[C@@H](CCCNC(=N)N)C(=O)O [ADER, H-Ala-Asp-Glu-Arg-OH] (H-ADER-OH)
unitAnnotation: %
valueMeasured: 2.5

Please fill in: Apoptosis reported for CC(=O)N[C@@H](CC(=O)O)C(=O)N[C@@H](CCC(=O)O)C(=O)O [AcDE, Ac-Asp-Glu-OH] (Ac-Asp-Glu-OH) = 22

Entry COC(=O)[C@H](CCC(=O)O)NC(=O)[C@@H](N)CC(=O)O [DEOMe, H-Asp-Glu-OCH3] (HELM PEPTIDE1{D.E.[CO[*:1]]}$$$$V2.0) ; Apoptosis = 3

Apoptosis for CCNC(=O)[C@H](CCC(=O)O)NC(=O)[C@@H](N)CC(=O)O [DENHEt, H-Asp-Glu-NH-CH2-CH3] (HELM PEPTIDE1{D.E.[CCN[*:1]]}$$$$V2.0) is 21

###

A collection of compounds and their measured Necrosis
Tested on: HeLa S3 cells
assayRemarks: Protective effect of peptides on apoptosis and necrosis in the presence of camptothecin (Annexin-V FITC / PI flow cytofluorimetry)
Type: cell-based, human
conditionNotes: HeLa cell culture, peptide 200 ng/ml + camptothecin 50 µM, 24 hours
Residues, ends and D or L forms follow the SMILES beside them.
Field format: number, assumed %, no unit text.

compound: CC(=O)N[C@@H](CC(=O)O)C(=O)N[C@@H](CCC(=O)O)C(=O)O [AcDE, Ac-Asp-Glu-OH] (Ac-Asp-Glu-OH)
Necrosis, %: 8
//
compound: CCNC(=O)[C@H](CCC(=O)O)NC(=O)[C@@H](N)CC(=O)O [DENHEt, H-Asp-Glu-NH-CH2-CH3] (HELM PEPTIDE1{D.E.[CCN[*:1]]}$$$$V2.0)
Necrosis, %: 13
//
compound: C[C@H](N)C(=O)N[C@@H](CC(=O)O)C(=O)N[C@@H](CCC(=O)O)C(=O)N[C@@H](CCCNC(=N)N)C(=O)O [ADER, H-Ala-Asp-Glu-Arg-OH] (H-ADER-OH)
Necrosis, %: 4

Documented Necrosis of COC(=O)[C@H](CCC(=O)O)NC(=O)[C@@H](N)CC(=O)O [DEOMe, H-Asp-Glu-OCH3] (HELM PEPTIDE1{D.E.[CO[*:1]]}$$$$V2.0) : 4.5
